Items are presented alongside their recorded protein stability index.
B1: PTPRD (parent)
chain: FICQATGDPRPKIVWNKKGKKVSN

Variants of: B1
Assay: protein stability index of a GFP-peptide fusion (GPS, HEK-293T) (PSI 1-6); higher = more stable;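 also: lentivirally expressed fusions sorted by FACS into six bins by GFP to DsRed ratio, PSI derived from sequencing read proportions per bin multiplied by bin number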
Conditions: c terminus: a fixed tail appended

Example entries and their recorded answers appear below.
INSERT INTO measurements (seq_string, value_reported) VALUES
  ('FICQATGDPRIKIVWNKKGKKVSN [P11I]', 2.31),
  ('FICQATGDPRFKIVWNKKGKKVSN [P11F]', 1.52),
  ('FICQATGDPCPKIVWNKKGKKVSN [R10C]', 1.84),
  ('FICQATSDPRPKIVWNKKGKKVSN [G7S]', 2.02);

Lookup: Field request: protein stability index | item: FICQATGDPRPKIVWNNKGKKVSN [K17N]
Found: 2.31

Lookup: Quick one: protein stability index for FICQATGDPRPKIVWNKKGKKVPN [S23P] ?
Found: 2.15

Lookup: # input variant: FICQATGDPRPKIVWNKKGKKVWN [S23W] ; wanted: its protein stability index
Found: 2.28

Lookup: I would be grateful if you could share the reported protein stability index for FICQATGDPRPKIVWNKKGKKWSN [V22W] .
Found: 2.35

Lookup: Query (variant): FICQATGDKRPKIVWNKKGKKVSN [P9K] ; field requested: protein stability index
Found: 1.54

Lookup: Would you kindly share the measured protein stability index for FICQATADPRPKIVWNKKGKKVSN [G7A] ?
Found: 2.15

Lookup: Consider the variant FINQATGDPRPKIVWNKKGKKVSN [C3N] and give its measured protein stability index.
Found: 1.88

Lookup: What measured protein stability index goes with FICQATGDPRPKINWNKKGKKVSN [V14N] ?
Found: 1.73

Lookup: Please give the measured protein stability index for this variant: FICQATGDPRPKIVWNEKGKKVSN [K17E]
Found: 1.34
